test-system: SIRT1 F273L (Homo sapiens, UniProt Q96EB6, F273L)
Sequence (Q96EB6 1-747 F273L): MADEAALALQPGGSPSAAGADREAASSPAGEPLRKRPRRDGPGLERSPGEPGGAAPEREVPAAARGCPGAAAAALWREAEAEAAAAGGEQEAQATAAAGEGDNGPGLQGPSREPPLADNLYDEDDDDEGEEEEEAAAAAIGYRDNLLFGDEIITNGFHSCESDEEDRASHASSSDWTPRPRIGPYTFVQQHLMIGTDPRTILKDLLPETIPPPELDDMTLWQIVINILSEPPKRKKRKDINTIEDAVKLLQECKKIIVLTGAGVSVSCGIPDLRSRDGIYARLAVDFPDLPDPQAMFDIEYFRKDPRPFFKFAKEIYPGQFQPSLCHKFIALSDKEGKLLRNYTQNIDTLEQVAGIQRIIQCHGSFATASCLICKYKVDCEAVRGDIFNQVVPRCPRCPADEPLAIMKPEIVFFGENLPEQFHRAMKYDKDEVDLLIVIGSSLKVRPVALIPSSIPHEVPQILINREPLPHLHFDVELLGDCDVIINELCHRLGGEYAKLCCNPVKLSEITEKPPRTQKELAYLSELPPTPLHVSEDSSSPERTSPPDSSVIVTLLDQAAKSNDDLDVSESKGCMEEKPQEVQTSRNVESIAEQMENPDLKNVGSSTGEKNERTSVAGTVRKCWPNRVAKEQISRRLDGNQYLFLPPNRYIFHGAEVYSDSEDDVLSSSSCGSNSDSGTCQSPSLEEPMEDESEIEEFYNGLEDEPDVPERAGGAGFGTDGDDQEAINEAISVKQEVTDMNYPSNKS
measurement-notes: Inhibitory constant on SIRT1 mutant F273L
property: Ki (nM)
# number only, unit nM dropped from output

IN: Requested read-out: Ki. Entry: COc1cc(C=C2C(=O)OC(c3ccccc3)OC2=O)cc(Br)c1O (stereo not shown)
OUT: 850
